- Test system: Escherichia coli TOP10;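 also: peptides expressed intracellularly from a pBAD plasmid library in pooled LB shake-flask culture, induced with 0.3% L-arabinose, DNA abundance read by NGS, three biological replicates, DESeq2 with apeglm shrinkage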
- assay: shrunken log2 fold change of peptide-encoding DNA abundance (4.5 h post-induction vs induction); higher = less antimicrobial activity (less host growth inhibition)
- condition info: time post-induction: 4.5 h; library: site-saturation at positions 5, 18, 19, 20
Criterion: shrunken log2 fold change meeting or surpassing -0.02. Met: yes (1). Not met: no (0).

Consider the worked cases shown below.
### Prompt Decide: shrunken log2 fold change of `RRIRHRPPRLPRPRPRPSHCPRP` >= -0.02?
### Response no (0)

### Prompt Decide: shrunken log2 fold change of `RRIRRRPPRLPRPRPRPQYQPRP` >= -0.02?
### Response no (0)

### Prompt Decide: shrunken log2 fold change of `RRIRARPPRLPRPRPRPMMCPRP` >= -0.02?
### Response yes (1)

### Prompt Decide: shrunken log2 fold change of `RRIRRRPPRLPRPRPRPYGEPRP` >= -0.02?
### Response no (0)

Next:
### Prompt Decide: shrunken log2 fold change of `RRIRSRPPRLPRPRPRPQPWPRP` >= -0.02?
### Response yes (1)
